Reported Ki for target or system Cannabinoid receptor 1 (Homo sapiens), by entry.

Q. Tell me measured Ki for Cc1nonc1Cn1nnc2c(N3CC[C@@H](S)C3)nc(C(C)(C)C)nc21 (single isomer, unassigned) please.
A. 8 µM

Then this compound:
Q. Tell me measured Ki for CC(C)(C)c1nc(N2CCC(N=C=S)C2)c2nnn(Cc3ccccc3Cl)c2n1 (configuration not stated) please.
A. 5.64 µM

====

Reported pKi for target or system Cannabinoid receptor 2 (Homo sapiens, UniProt P34972), by entry.
# reply with the number alone; pKi is -log10 of concentration in mol/L

Q. Provide pKi, tested on Cannabinoid receptor 2 (Homo sapiens, UniProt P34972), for CC(C)(C)c1nc(N2CCC(N=C=S)C2)c2nnn(Cc3ccccc3Cl)c2n1 (configuration not stated) .
Sequence (P34972 whole entry): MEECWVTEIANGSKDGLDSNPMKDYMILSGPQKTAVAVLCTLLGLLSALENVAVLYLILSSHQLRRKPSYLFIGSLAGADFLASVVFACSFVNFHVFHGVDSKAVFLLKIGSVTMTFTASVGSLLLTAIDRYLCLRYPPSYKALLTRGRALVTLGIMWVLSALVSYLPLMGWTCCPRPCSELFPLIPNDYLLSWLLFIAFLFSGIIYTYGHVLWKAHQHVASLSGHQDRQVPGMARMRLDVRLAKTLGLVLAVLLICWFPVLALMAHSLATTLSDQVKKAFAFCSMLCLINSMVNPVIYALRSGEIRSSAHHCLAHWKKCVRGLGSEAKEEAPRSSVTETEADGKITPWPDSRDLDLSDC
A. 5.87

Further cases:
Q. Provide pKi, tested on Cannabinoid receptor 2 (Homo sapiens, UniProt P34972), for Cc1nonc1Cn1nnc2c(N3CC[C@@H](S)C3)nc(C(C)(C)C)nc21 (single isomer, unassigned) .
A. 6.19

Source of measurements: ChEMBL document CHEMBL5727382
